Molecular target: T1, Bcl-w
T1 chain: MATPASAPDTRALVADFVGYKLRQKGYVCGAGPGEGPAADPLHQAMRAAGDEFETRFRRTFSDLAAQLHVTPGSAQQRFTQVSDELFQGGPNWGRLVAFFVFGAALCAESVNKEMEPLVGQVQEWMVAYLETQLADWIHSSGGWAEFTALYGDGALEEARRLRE
Experiment: competition phage ELISA
Lab note: compare IC50 with 50 nM, writing true if less and false if equal or more.

>  <binder>
NLWAAQRYGRELARMSDEFVDSFKKG (M13 phage display: FLAG-26mer-GGGT-g3(249-406)) [Bad BH3 R13A, phage-displayed]

>  <class>
false

$$$$
>  <binder>
NLAAAQRYGRELRRMSDEFVDSFKKG (M13 phage display: FLAG-26mer-GGGT-g3(249-406)) [Bad BH3 W3A, phage-displayed]

>  <class>
true

$$$$
>  <binder>
NLWAEQRYGRELRRMSDEFVDSFKKG (M13 phage display: FLAG-26mer-GGGT-g3(249-406)) [Bad BH3 A5E, phage-displayed]

>  <class>
false

$$$$
>  <binder>
NLWAAQRYGRELRRMSDEFVDSFKKE (M13 phage display: FLAG-26mer-GGGT-g3(249-406)) [Bad BH3 G26E, phage-displayed]

>  <class>
true

$$$$
>  <binder>
NLWAAARYGRELRRMSDEFVDSFKKG (M13 phage display: FLAG-26mer-GGGT-g3(249-406)) [Bad BH3 Q6A, phage-displayed]

>  <class>
true

$$$$
>  <binder>
NLWAAQRYGRELRRMSDEFVASFKKG (M13 phage display: FLAG-26mer-GGGT-g3(249-406)) [Bad BH3 D21A, phage-displayed]

>  <class>
true

$$$$
>  <binder>
NAWAAQRYGRELRRMSDEFVDSFKKG (M13 phage display: FLAG-26mer-GGGT-g3(249-406)) [Bad BH3 L2A, phage-displayed]

>  <class>
true

$$$$
>  <binder>
NLWAAQRYGRELRRMSDEFVDAFKKG (M13 phage display: FLAG-26mer-GGGT-g3(249-406)) [Bad BH3 S22A, phage-displayed]

>  <class>
false

$$$$
>  <binder>
NLWAAQRYGRELRRMSDEFVDSFKAG (M13 phage display: FLAG-26mer-GGGT-g3(249-406)) [Bad BH3 K25A, phage-displayed]

>  <class>
true

$$$$
>  <binder>
NLWAAQRYGRELRRASDEFVDSFKKG (M13 phage display: FLAG-26mer-GGGT-g3(249-406)) [Bad BH3 M15A, phage-displayed]

>  <class>
true

$$$$
>  <binder>
NLWAAQRYGRELRRMSDEFADSFKKG (M13 phage display: FLAG-26mer-GGGT-g3(249-406)) [Bad BH3 V20A, phage-displayed]

>  <class>
true

$$$$
>  <binder>
NLWAAQRAGRELRRMSDEFVDSFKKG (M13 phage display: FLAG-26mer-GGGT-g3(249-406)) [Bad BH3 Y8A, phage-displayed]

>  <class>
false

$$$$
>  <binder>
NLWAAQAYGRELRRMSDEFVDSFKKG (M13 phage display: FLAG-26mer-GGGT-g3(249-406)) [Bad BH3 R7A, phage-displayed]

>  <class>
true

$$$$
>  <binder>
NLWAAQRYGRELRRMSDEFVDSFAKG (M13 phage display: FLAG-26mer-GGGT-g3(249-406)) [Bad BH3 K24A, phage-displayed]

>  <class>
false

$$$$
>  <binder>
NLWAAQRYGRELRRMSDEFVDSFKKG (M13 phage display: FLAG-26mer-GGGT-g3(249-406); also called wtBad) [Bad BH3 wild type, phage-displayed]

>  <class>
true

$$$$
>  <binder>
ALWAAQRYGRELRRMSDEFVDSFKKG (M13 phage display: FLAG-26mer-GGGT-g3(249-406)) [Bad BH3 N1A, phage-displayed]

>  <class>
true

$$$$
>  <binder>
NLWAAQRYGRELRRMSDAFVDSFKKG (M13 phage display: FLAG-26mer-GGGT-g3(249-406)) [Bad BH3 E18A, phage-displayed]

>  <class>
false

$$$$
>  <binder>
NLWAAQRYGRELRRMSAEFVDSFKKG (M13 phage display: FLAG-26mer-GGGT-g3(249-406)) [Bad BH3 D17A, phage-displayed]

>  <class>
false

$$$$
>  <binder>
NLWEAQRYGRELRRMSDEFVDSFKKG (M13 phage display: FLAG-26mer-GGGT-g3(249-406)) [Bad BH3 A4E, phage-displayed]

>  <class>
true

$$$$
>  <binder>
NLWAAQRYGAELRRMSDEFVDSFKKG (M13 phage display: FLAG-26mer-GGGT-g3(249-406)) [Bad BH3 R10A, phage-displayed]

>  <class>
true

$$$$
>  <binder>
NLWAAQRYGRELRAMSDEFVDSFKKG (M13 phage display: FLAG-26mer-GGGT-g3(249-406)) [Bad BH3 R14A, phage-displayed]

>  <class>
false

$$$$
>  <binder>
NLWAAQRYGRELRRMSDEFVDSAKKG (M13 phage display: FLAG-26mer-GGGT-g3(249-406)) [Bad BH3 F23A, phage-displayed]

>  <class>
false

$$$$
